- test details: chemical genetic growth profiling, strain panel (AID 1159580);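 note: tested at 20 µM; growth read once vehicle control cultures reached saturation at 30 °C; 1 = growth at the plate median or of vehicle wells; lower values mean less growth of the strain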
- conditions used: S. cerevisiae deletion strains, growth OD, locus YHR079C, strain IRE1, hits give low values
About 2,000 (36%) of roughly 5,500 compounds were called active. Inconclusive results (about 18%) are left out. Some of the results follow.
The reader will find reported normalized growth values listed item by item below.
assay metric: normalized growth

1) C=C(C)[C@@H]1[C@H]2OC(=O)[C@@H]1[C@]1(O)C[C@H]3O[C@]34C(=O)O[C@H]2[C@]14C    0.993
2) Cc1ccc(OCC2SCCN2C(=O)c2ccc(C(F)(F)F)cc2)c([N+](=O)[O-])c1 (stereo not given)    1.01
3) Cc1ccccc1C(=O)Oc1ccc(C(F)(F)F)cc1[N+](=O)[O-]    0.836
4) Cc1ccc(Sc2c(Sc3ccc(C)cc3)c(=O)c2=O)cc1    0.171
5) Cc1cccc(C)c1OCC(C)N (stereo not given)    0.994

###

- test details: chemical genetic growth profiling, strain panel (AID 1159580)
- conditions used: S. cerevisiae deletion strains, growth OD, locus YMR125W, strain sto1
About 2,000 (36%) of roughly 5,500 compounds were called active. Another 18% or so got no clear call; they are omitted. Rule as the data show it: active = normalized growth mostly below about 0.91 (no sharp cut-off); inconclusive = no clear call, values can overlap the other calls; inactive = mostly above about 0.92. The list shows a part of the results.
Possible outcomes: t (active), f (inactive)

1. O=C1C=CC(=C(c2ccc(O)cc2)c2ccc(O)cc2)C=C1    f
2. COc1ccc2c(C)cc(=O)oc2c1    f
3. CCCCCCCCCCCCCCCC(=O)OC/C=C(C)/C=C/C=C(C)/C=C/C1=C(C)CCCC1(C)C    f
4. COc1ccc2c(c1)O[C@@H]1COc3cc(OC)c(OC)cc3[C@@H]1C2=O    t
5. CCOC(=O)c1c(C)c(Cl)c(O)c(Cl)c1O    t
6. NC(=O)c1ccc[n+]([C@@H]2O[C@H](COP(=O)([O-])OP(=O)(O)OC[C@H]3O[C@@H](n4cnc5c(N)ncnc54)[C@H](O)[C@@H]3O)[C@@H](O)[C@H]2O)c1    f
7. CC(=O)[C@H]1CCC2C3CCC4=CC(=O)CC[C@]4(C)C3CC[C@@]21C (stereo partly specified)    f
8. CC(C(=O)O)c1cccc(C(=O)c2ccccc2)c1 (stereo unspecified)    f
9. Cc1cc(O)c(C=O)c(O)c1C(=O)O    f
10. CC1CC2C3CC(F)C4=CC(=O)C=CC4(C)C3(F)C(O)CC2(C)C1(O)C(=O)CO (stereo unspecified)    f
11. COc1cc2c(cc1OC)C(=O)OC2    f
12. NC(=O)C(c1ccccc1)(c1ccccc1)C1CCN(CCc2ccc3c(c2)CCO3)C1 (stereo unspecified)    f
13. COc1ccc2c(c1OC)C(=O)O[C@H]2[C@H]1c2cc3c(cc2CCN1C)OCO3    f
14. N=c1ccn2c(n1)O[C@@H]1C2O[C@H](CO)[C@H]1O (stereo partly specified)    f
15. COc1cc2c(cc1OC)[C@@H]1C(=O)c3ccc4c(c3O[C@@H]1CO2)C=CC(C)(C)O4    f
16. CN1CCC(=C2c3ccccc3CCc3sccc32)CC1    f
17. c1ccc(N=Nc2ccccc2)cc1    f
18. NCC1CCC(C(=O)O)CC1 (stereo unspecified)    f
19. CC1=C(C/C=C(\C)CCC[C@H](C)CCC[C@H](C)CCCC(C)C)C(=O)c2ccccc2C1=O    f
20. CCC(=O)O[C@H]1CCC2C3CCC4=CC(=O)CC[C@]4(C)C3CC[C@@]21C (stereo partly specified)    f
21. COc1ccc(OC)c(C(O)C(C)N)c1 (stereo unspecified)    f
22. CC(=O)O[C@@H]1C[C@@]2(C)C(CC[C@@H]2C(C)=O)C2CCC3=CC(=O)CC[C@]3(C)C21 (stereo partly specified)    f
23. CC(=O)NC1SCCC1=O (stereo unspecified)    f
24. COc1cc(NC(C)CCCN)c2ncccc2c1 (stereo unspecified)    f
25. CCOC(=O)c1c(C)cc(O)c(C=O)c1O    t
26. CCOC(=O)CCC(=O)O[C@H]1[C@H](O[C@@H]2[C@@H](C)[C@H](O[C@H]3C[C@@](C)(OC)[C@@H](O)[C@H](C)O3)[C@@H](C)C(=O)O[C@H](CC)[C@@](C)(O)[C@H](O)[C@@H](C)C(=O)[C@H](C)C[C@@]2(C)O)O[C@H](C)C[C@@H]1N(C)C    f

###

- test details: chemical genetic growth profiling, strain panel (AID 1159580)
- conditions used: S. cerevisiae deletion strains, growth OD, locus YDL035C, strain GPR1, hits give low values
The whole screen tested about 5,500 compounds, of which about 2,000 (36%) were called active. Roughly 18% stayed inconclusive and do not appear here. The list shows a part of the results.
The reader will find reported normalized growth values listed item by item below.
assay metric: normalized growth

1. C[C@@H]1[C@H]2[C@H](O[C@@H]3O[C@H](CO)[C@@H](O)[C@H](O)[C@H]3O)OC=C(C(=O)O)[C@H]2C[C@@H]1O    1.02 (inactive)
2. O=C1C=CC(=C(c2ccc(O)cc2)c2ccc(O)cc2)C=C1    1 (inactive)
3. COc1cc2c(cc1OC)C1C(=O)c3c(cc4c(c3O)C=CC(C)(C)O4)OC1CO2 (stereo unspecified)    1.03 (inactive)
4. COc1cc2c(cc1OC)C(=O)OC2    1.02 (inactive)
5. CCN(CCO)CCCC(C)Nc1ccnc2cc(Cl)ccc12 (stereo unspecified)    1.02 (inactive)
6. Cc1c(O)c(C(=O)CC(C)C)c2oc3c(C(=O)CC(C)C)c(O)c(C)c(O)c3c2c1O    0.994 (inactive)
7. CC(=O)c1c(O)c(C)c(O)c2c1oc1c(C(C)=O)c(O)c(C)c(O)c12    0.942 (inactive)
8. CCOC(=O)C(Cc1ccc(O)cc1)NC(C)=O (stereo unspecified)    1.02 (inactive)
9. CCOC(=O)[C@H](CCc1ccccc1)N[C@H]1CCc2ccccc2N(CC(=O)O)C1=O    0.998 (inactive)
10. S=c1nc[nH]c2nc[nH]c12    1 (inactive)
11. CCS(=O)CCSP(=O)(OC)OC (stereo unspecified)    1.01 (inactive)

###

- test details: chemical genetic growth profiling, strain panel (AID 1159580);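 note: tested at 20 µM; growth read once vehicle control cultures reached saturation at 30 °C; 1 = growth at the plate median or of vehicle wells; lower values mean less growth of the strain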
- conditions used: S. cerevisiae deletion strains, growth OD, locus YKL009W, strain mrt4, hits give low values
Among all 5,500 compounds or so, about 2,000 (36%) were called active. Not shown: some 18% with an inconclusive outcome. The list shows a part of the results.
assay metric: normalized growth

1) OCC(O)C(O)C(O)CO (stereo not drawn)    1.06
2) NCC1CCC(C(=O)O)CC1 (stereo not drawn)    0.97
3) NC(=O)c1ccc[n+]([C@@H]2O[C@H](COP(=O)([O-])OP(=O)(O)OC[C@H]3O[C@@H](n4cnc5c(N)ncnc54)[C@H](O)[C@@H]3O)[C@@H](O)[C@H]2O)c1    0.975

###

- test details: chemical genetic growth profiling, strain panel (AID 1159580);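 note: tested at 20 µM; growth read once vehicle control cultures reached saturation at 30 °C; 1 = growth at the plate median or of vehicle wells; lower values mean less growth of the strain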
- conditions used: S. cerevisiae deletion strains, growth OD, locus YDL108W, strain KIN28, hits give low values
The campaign covered roughly 5,500 compounds. About 2,000 (36%) were called active. Another 18% or so got no clear call; they are omitted. This is one part of the list.
assay metric: normalized growth

1) Cc1cc(Cl)ccc1NNC(=O)c1snnc1C    0.955
2) Cc1cc(C(=O)NNc2ccc(F)cc2F)no1    0.973
3) CC(C)(C)CN/C(C#N)=C(/C#N)NCc1cccc(Cl)c1    0.997
4) Cc1ccc(/C=C2\CSc3ccc(F)cc3C2=O)cc1    0.93
5) Cc1cc(Cl)ccc1NNC(=O)c1ccno1    0.97
6) Cc1nnsc1C(=O)Nc1cc(C(F)(F)F)cc(C(F)(F)F)c1    0.958
7) COc1cc(NC(=S)NC(=O)c2ccccc2)c(OC)cc1Cl    0.981
8) Cc1ccc(-c2csc(-c3cccnc3)n2)c(C)c1    0.964

###

- test details: chemical genetic growth profiling, strain panel (AID 1159580);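 note: tested at 20 µM; growth read once vehicle control cultures reached saturation at 30 °C; 1 = growth at the plate median or of vehicle wells; lower values mean less growth of the strain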
- conditions used: S. cerevisiae deletion strains, growth OD, locus YOR231W, strain MKK1
In all, about 5,500 compounds went through this assay and about 2,000 (36%) were called active. About 18% were inconclusive and are not listed. Rule as the data show it: active = normalized growth mostly below about 0.91 (no sharp cut-off); inconclusive = no clear call, values can overlap the other calls; inactive = mostly above about 0.92. Some of the results follow.
Possible outcomes: 1.0 = active, 0.0 = inactive

1. CC(=O)O[C@@H]1C[C@@]2(C)C(CC[C@@H]2C(C)=O)C2CCC3=CC(=O)CC[C@]3(C)C21 (stereo partly drawn)    0.0
2. O=c1c(Sc2ccc(Cl)cc2)c(Sc2ccc(Cl)cc2)c1=O    1.0
3. CC(=O)OCC(=O)[C@H]1CCC2C3CCC4=CC(=O)CC[C@]4(C)C3CC[C@@]21C (stereo partly drawn)    0.0
4. CCC(NC(C)C)C(O)c1ccc(O)c(O)c1 (stereo not drawn)    0.0
5. CCCCCCCCCCCCCCCC(=O)OC/C=C(C)/C=C/C=C(C)/C=C/C1=C(C)CCCC1(C)C    0.0
6. Cc1nnsc1C(=O)NNc1ccc(F)cc1F    0.0
7. COc1ccc2c(c1OC)C(=O)O[C@@H]2[C@H]1c2cc3c(cc2CCN1C)OCO3    0.0
8. COc1ccc2cc([C@H](C)C(=O)O)ccc2c1    0.0
9. COc1ccc(NNC(=O)c2sc3ccccc3c2Cl)cc1    1.0
10. CC(=O)[C@H]1CCC2C3CCC4=CC(=O)CC[C@]4(C)C3CC[C@@]21C (stereo partly drawn)    0.0
11. CCOC(=O)C(Cc1ccc(O)cc1)NC(C)=O (stereo not drawn)    0.0
12. C[C@]12CCC(=O)C=C1CCC1C2CC[C@@]2(C)C1CC[C@@H]2O (stereo partly drawn)    0.0
13. CC(=O)OC(C)(C)[C@@H]1Cc2cc3ccc(=O)oc3cc2O1    0.0
14. CN(C)C(=S)SSC(=S)N(C)C    1.0
15. CN1CCC(=C2c3ccccc3C=Cc3ccccc32)CC1    0.0
16. CC(=O)OCC(=O)[C@@]1(O)CCC2C3CCC4=CC(=O)CC[C@]4(C)C3C(=O)C[C@@]21C (stereo partly drawn)    0.0
17. CC[C@H]1OC(=O)[C@H](C)[C@@H](O[C@H]2C[C@@](C)(OC)[C@@H](O)[C@H](C)O2)[C@H](C)[C@@H](O[C@@H]2O[C@H](C)C[C@H](N(C)C)[C@H]2O)[C@](C)(O)C[C@@H](C)CN(C)[C@H](C)[C@@H](O)[C@]1(C)O    0.0
18. COCCc1ccc(OCC(O)CNC(C)C)cc1 (stereo not drawn)    0.0
